# TESTED_TARGET: T1, PSMA Fab (006 PSMA Fab)
# T1 construct: also called Anti-PSMA Fab; anti-PSMA Fab
# MEASUREMENT_DESCRIPTION: clonal phage ELISA; biotinylated PSMA Fab on neutravidin plate, wells pre-incubated with PSMA antigen (competitor), anti-M13-HRP detection
Where no end group is shown, it is not given here.
READOUT_KIND: Phage binding ELISA signal, Anti-PSMA Fab in presence of PSMA antigen
No unit in the answer, only the number.

Task: Fill blank: measured Phage binding ELISA signal, Anti-PSMA Fab in presence of PSMA antigen of the binder VANWCTPKWMCEHV (cysteine pairing not given here; also: displayed on bacteriophage as fusion to pIII, linker not given here) [Phage-2716] is ____.
Output: 0.0631

Task: Please report the recorded Phage binding ELISA signal, Anti-PSMA Fab in presence of PSMA antigen for TQKWCIPAWMCAER (cysteine pairing not given here; also: displayed on bacteriophage as fusion to pIII, linker not given here) [Phage-2718] .
Output: 0.0702

Task: Please report the recorded Phage binding ELISA signal, Anti-PSMA Fab in presence of PSMA antigen for NVSMCIPNWMCVGL (cysteine pairing not given here; also: displayed on bacteriophage as fusion to pIII, linker not given here) [Phage-2711] .
Output: 0.0891

Task: So what does the record say about Phage binding ELISA signal, Anti-PSMA Fab in presence of PSMA antigen for DWKWCTPSWMCAQK (cysteine pairing not given here; also: displayed on bacteriophage as fusion to pIII, linker not given here) [Phage-2720] ?
Output: 0.0639

The reported numbers originate from patent US20260242478A1.
